pIC50: −log10 of the molar value.
Below are pIC50 measurements against Hepatocyte growth factor receptor (Homo sapiens, UniProt P08581) drawn from the literature.

Reference set (3 entries):
Nc1nccc(Oc2ccc(NC(=O)c3ncn(-c4ccccc4)c3C(F)(F)F)cc2F)c1Cl : 5.30 to 6.30
O=C(Nc1ccc(Oc2ccnc3[nH]c(=O)n(C4CCOCC4)c23)c(F)c1)c1cnn(-c2ncccc2F)c1C(F)(F)F : 5.30 to 6.30
Nc1nccc(Oc2ccc(NC(=O)c3cnn(-c4ccc(F)nn4)c3C(F)(F)F)cc2F)c1Cl : < 5.30

# next compound below
Lab entry: Hepatocyte growth factor receptor (Homo sapiens, UniProt P08581) assay, compound `Cc1nn(-c2ccccc2)c(C)c1C(=O)Nc1ccc(Oc2ccnc(N)c2Cl)c(F)c1` , pIC50 = < 5.30
